target: EPHB1 (UniProt P54762); assay: phosphorylation enrichment, bacterial display (enrichment ratio); higher = better substrate or ligand; peptides without Tyr show the background;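 further: 11-residue human phosphosite peptides and single-mutation variants displayed on the E. coli surface, counted by deep sequencing, each peptide's frequency after selection divided by its frequency in the unselected input library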;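 further: frequency after pTyr selection over input frequency; kinase dosed for 20-30% of maximal phosphorylation in three min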
Sequence (P54762 whole entry, looked up): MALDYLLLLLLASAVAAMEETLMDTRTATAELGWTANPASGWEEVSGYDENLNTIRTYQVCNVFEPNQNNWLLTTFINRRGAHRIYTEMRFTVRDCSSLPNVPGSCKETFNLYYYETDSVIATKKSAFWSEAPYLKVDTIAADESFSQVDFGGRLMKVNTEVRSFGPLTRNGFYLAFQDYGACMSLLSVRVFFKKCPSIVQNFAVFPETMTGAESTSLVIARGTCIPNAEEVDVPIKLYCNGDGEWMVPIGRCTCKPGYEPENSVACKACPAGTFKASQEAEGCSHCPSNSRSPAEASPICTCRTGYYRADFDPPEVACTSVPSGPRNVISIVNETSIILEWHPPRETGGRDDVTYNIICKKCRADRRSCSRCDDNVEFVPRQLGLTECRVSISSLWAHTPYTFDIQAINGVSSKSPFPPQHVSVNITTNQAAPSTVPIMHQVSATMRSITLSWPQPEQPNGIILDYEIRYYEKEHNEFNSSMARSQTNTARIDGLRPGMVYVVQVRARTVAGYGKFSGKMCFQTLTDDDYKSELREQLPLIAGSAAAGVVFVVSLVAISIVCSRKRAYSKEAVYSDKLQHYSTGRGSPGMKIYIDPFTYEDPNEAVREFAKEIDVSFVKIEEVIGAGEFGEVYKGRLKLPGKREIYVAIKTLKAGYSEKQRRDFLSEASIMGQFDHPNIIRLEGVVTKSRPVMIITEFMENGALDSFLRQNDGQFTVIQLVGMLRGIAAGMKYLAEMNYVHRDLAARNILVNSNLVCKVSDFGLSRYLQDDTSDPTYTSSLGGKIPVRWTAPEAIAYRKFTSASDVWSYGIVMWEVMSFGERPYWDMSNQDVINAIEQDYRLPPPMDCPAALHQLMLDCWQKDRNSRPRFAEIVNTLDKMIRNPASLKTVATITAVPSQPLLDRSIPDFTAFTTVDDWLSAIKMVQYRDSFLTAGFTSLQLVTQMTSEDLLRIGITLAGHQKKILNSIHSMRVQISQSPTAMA
Each record's phosphorylation enrichment is compared with low band (below 0.5), middle band (0.5 to below 1), high band (1 or more) to give its class.

Below are worked cases with known answers.
Into which bin does this sequence go? CNRADYSKLAP [GNE_Y22] middle band

Into which bin does this sequence go? MPQNEYIELHC [NSA2_Y6_R11C] high band

---
Into which bin does this sequence go? MPPHIYAITDT [MYH9_Y151] high band

Into which bin does this sequence go? ESSKAYERALS [TTC37_Y1074] low band

Into which bin does this sequence go? VHKKGYNKLNQ [ZNF676_Y98_E96K] low band

Into which bin does this sequence go? RRVPVYGGRGA [QDPR_Y16_L14P] middle band

Into which bin does this sequence go? FVHDNYVIWRT [CPS1_Y1450_R1453W] high band

Into which bin does this sequence go? AVISVYDLVAF [PSEN1_Y256_V261F] high band

Into which bin does this sequence go? NSGFFYKTAEE [CCT6B_Y250] middle band

----------
biological target: Fyn (UniProt P06241); test: phosphorylation enrichment, bacterial display (enrichment ratio); higher = better substrate or ligand; peptides without Tyr show the background
Sequence (P06241 whole entry, looked up): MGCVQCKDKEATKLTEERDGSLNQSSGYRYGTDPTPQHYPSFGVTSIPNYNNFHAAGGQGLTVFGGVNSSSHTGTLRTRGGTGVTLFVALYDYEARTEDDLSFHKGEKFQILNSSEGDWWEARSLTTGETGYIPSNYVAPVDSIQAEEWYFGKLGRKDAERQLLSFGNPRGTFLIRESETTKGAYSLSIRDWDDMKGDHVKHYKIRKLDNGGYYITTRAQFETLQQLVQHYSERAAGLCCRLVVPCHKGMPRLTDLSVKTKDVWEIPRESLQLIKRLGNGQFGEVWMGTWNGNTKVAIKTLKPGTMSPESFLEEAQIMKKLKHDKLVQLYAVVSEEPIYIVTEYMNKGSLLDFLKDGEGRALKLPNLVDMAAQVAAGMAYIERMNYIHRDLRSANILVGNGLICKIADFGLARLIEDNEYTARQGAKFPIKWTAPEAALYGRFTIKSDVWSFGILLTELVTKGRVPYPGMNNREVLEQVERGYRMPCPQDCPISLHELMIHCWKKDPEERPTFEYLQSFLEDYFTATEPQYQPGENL
Here the recorded phosphorylation enrichment is given for each entry.

Here are 3 sequences together with their reported answers.
For the record KAPVDYIRKLQ [MITF_Y360_S357P] , what value of phosphorylation enrichment is listed for Fyn (UniProt P06241)? 0.338

For the record DRLTVYIDRVR [LMNA_Y45_A43T] , what value of phosphorylation enrichment is listed for Fyn (UniProt P06241)? 0.409

For the record QTPVLYAMLDH [MPZ_Y220] , what value of phosphorylation enrichment is listed for Fyn (UniProt P06241)? 5.21

---
For the record SQKRKYIEIDS [SDAD1_Y580] , what value of phosphorylation enrichment is listed for Fyn (UniProt P06241)? 0.451

For the record GKMSQYLESMQ [CYB5R3_Y130] , what value of phosphorylation enrichment is listed for Fyn (UniProt P06241)? 0.457

For the record DNACQYMLTDR [MYH7_Y164_Y162C] , what value of phosphorylation enrichment is listed for Fyn (UniProt P06241)? 0.571

For the record CNRADYSKLAP [GNE_Y22] , what value of phosphorylation enrichment is listed for Fyn (UniProt P06241)? 0.458

For the record FDEFRYRSFIK [CFTR_Y517_V520F_YF] , what value of phosphorylation enrichment is listed for Fyn (UniProt P06241)? 0.467

----------
test system: Fer (mouse); experiment: phosphorylation enrichment, bacterial display (enrichment ratio); higher = better substrate or ligand; peptides without Tyr show the background
Endpoint name: phosphorylation enrichment
The response must contain the number and no unit.

For the record LMVFEYMRHGN [NTRK1_Y591_D596N] , what value of phosphorylation enrichment is listed for Fer (mouse)? 0.466

---
For the record RFLERYIFNRQ [HLA-DPB1_Y57_E62Q_YF] , what value of phosphorylation enrichment is listed for Fer (mouse)? 0.75

For the record SIKNKYVTALY [KCNH2_Y611_D609N] , what value of phosphorylation enrichment is listed for Fer (mouse)? 0.518

For the record EQQNMYRLKVL [ABCC6_Y372] , what value of phosphorylation enrichment is listed for Fer (mouse)? 0.488

For the record QNTGVYYDLYG [PTPN11_Y62_D61V] , what value of phosphorylation enrichment is listed for Fer (mouse)? 3.07

For the record DRLTVYIDRVR [LMNA_Y45_A43T] , what value of phosphorylation enrichment is listed for Fer (mouse)? 0.433

For the record DDFNLYINVKL [MTHFD1_Y52_S49F] , what value of phosphorylation enrichment is listed for Fer (mouse)? 0.38

For the record FADIAYNYRHR [PAH_Y166_G171R] , what value of phosphorylation enrichment is listed for Fer (mouse)? 0.436

For the record LSQDVYEEDSY [RET_Y900_R897Q] , what value of phosphorylation enrichment is listed for Fer (mouse)? 0.835

For the record ATHSGYRLNDY [CLDN14_Y233] , what value of phosphorylation enrichment is listed for Fer (mouse)? 0.395

For the record TVDASYFGGRG [ANTXR2_Y380_YF] , what value of phosphorylation enrichment is listed for Fer (mouse)? 0.312

For the record MPQNEYIELHC [NSA2_Y6_R11C] , what value of phosphorylation enrichment is listed for Fer (mouse)? 0.557

For the record SVTCTYSPDLN [TP53_Y126_A129D] , what value of phosphorylation enrichment is listed for Fer (mouse)? 0.629

For the record IHADIYRWFNI [MARS1_Y344] , what value of phosphorylation enrichment is listed for Fer (mouse)? 8.95

Each recorded value in this set is attributed to the supplement of paper PMC10065799.
